Source listed as patent US8067620B2.

Cures 48 h prior to infection (100 mg/kg) values for the molecules below.
test system: P. berghei; assay: Prophylactic activity against P. berghei in vivo (mice dosed before infection); details: single 100 mg/kg oral dose 48 h prior to infection; n=5 mice

// known answers, use as guide
CC(C)(CN)Oc1ccc(C2CCC3(CC2)OOC2(O3)C3CC4CC(C3)CC2C4)cc1.CS(=O)(=O)O (stereo not drawn) ... 5/5
CS(=O)(=O)N1CCN(CCCOc2ccc([C@H]3CC[C@]4(CC3)OOC3(O4)C4CC5CC(C4)CC3C5)cc2)CC1.Cc1ccc(S(=O)(=O)O)cc1 (stereo partly drawn) ... 5/5
CC(C)(O)CNCCCOc1ccc([C@H]2CC[C@]3(CC2)OOC2(O3)C3CC4CC(C3)CC2C4)cc1.Cc1ccc(S(=O)(=O)O)cc1 (stereo partly drawn) ... 5/5
NCCOc1ccc([C@H]2CC[C@]3(CC2)OO[C@]2(O3)C3CC4CC(C3)CC2C4)cc1 [OZ323, reference compound] ... 5/5
CCN(CC)CCCC(C)Nc1ccnc2cc(Cl)ccc12 (stereo not drawn) [CQ, chloroquine, reference compound] ... 0/5
CS(=O)(=O)O.c1cc(C2CCC3(CC2)OOC2(O3)C3CC4CC(C3)CC2C4)ccc1OCCN1CCOCC1 (stereo not drawn) ... 5/5

Data point: CS(=O)(=O)O.NC1CCC(Oc2ccc(C3CCC4(CC3)OOC3(O4)C4CC5CC(C4)CC3C5)cc2)CC1 (stereo not drawn) [OZ493] ; Cures 48 h prior to infection (100 mg/kg) = 5/5

Cures 48 h prior to infection (100 mg/kg) measured on CC(C)(N)CNC(=O)C[C@H]1CC[C@]2(CC1)OO[C@]1(O2)C2CC3CC(C2)CC1C3 [OZ277, reference compound] = 0/5

// OC1CCN(CCOc2ccc([C@H]3CC[C@]4(CC3)OOC3(O4)C4CC5CC(C4)CC3C5)cc2)CC1 (stereo partly drawn) : Cures 48 h prior to infection (100 mg/kg) value = 5/5
